# study system: FGF2/FGFR1 interaction (Homo sapiens, UniProt P09038)
# Sequence (P09038 134-288): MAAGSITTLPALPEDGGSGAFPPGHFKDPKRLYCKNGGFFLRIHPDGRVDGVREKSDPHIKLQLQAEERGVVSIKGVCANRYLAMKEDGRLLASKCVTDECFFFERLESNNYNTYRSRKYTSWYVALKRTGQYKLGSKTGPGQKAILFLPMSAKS
# assay explanation: SPR competition: FGF2 binding to substrate-immobilized FGFR1
# condition details: FGF2 150 nM injected over immobilized FGFR1, read-out: ID50, prevention of FGF2/FGFR1 interaction
parameter: pIC50
Note: pIC50 values are expressed as the negative base-10 logarithm of concentration in M.

Record O=C(Nc1ccc2cc(S(=O)(=O)O)cc(O)c2c1)Nc1ccc2cc(S(=O)(=O)O)cc(O)c2c1 , field pIC50: 5.40
